B1: PhoQ; a variant is named by its letters at X, in order, P23837 (parent)
chain: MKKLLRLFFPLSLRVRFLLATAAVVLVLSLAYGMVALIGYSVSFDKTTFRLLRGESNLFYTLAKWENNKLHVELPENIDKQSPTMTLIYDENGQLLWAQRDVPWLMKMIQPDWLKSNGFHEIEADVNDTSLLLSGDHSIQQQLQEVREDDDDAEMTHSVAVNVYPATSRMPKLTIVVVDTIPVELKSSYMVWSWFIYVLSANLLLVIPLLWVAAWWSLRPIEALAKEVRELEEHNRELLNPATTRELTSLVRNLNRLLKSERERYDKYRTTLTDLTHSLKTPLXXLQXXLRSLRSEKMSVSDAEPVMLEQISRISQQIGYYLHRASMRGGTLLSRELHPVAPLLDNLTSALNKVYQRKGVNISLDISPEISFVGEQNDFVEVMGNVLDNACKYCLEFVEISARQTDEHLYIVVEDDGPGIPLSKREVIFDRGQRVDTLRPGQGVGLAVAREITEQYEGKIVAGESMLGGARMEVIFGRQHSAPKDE

Variants of: B1
Test: enrichment ratio after two sorts for PhoP signalling (ratio (wild type AVST 3.29)); higher = more functional
Conditions: with PhoP (E. coli)
Whole data set: some 140,000 sequences, median “enrichment ratio after two sorts for PhoP signalling” near 0, cut for the highest 2% near 11. Many of the other results were omitted from the sample, so the highest values are more common in it than they were.
quantityName: enrichment ratio
Simply state the number, no unit and no words.

SCLA :: 11.8
SCLN :: 11.7
SCVN :: 11.1
SCLT :: 13.3

Problem: Identify measured enrichment ratio associated with "TETM"
Result: 22.4
